protocol-text: melting temperature; melt of duplexes
recorded-conditions: sodium 0.0675 M; strand 1 µM
test-readout: Tm (°C)
Report as a plain number; the unit °C is understood.

Query: Any idea what Tm was measured for CGACGTGCAGTATGTGCTG+CAGCACATCTGGCACGTCG ((((((((...((((((((+))))))))...)))))))) ?
Reply: 51.4

Query: Any idea what Tm was measured for CGACGTGCGCAATGTGCTG+CAGCACATAAGGCACGTCG ((((((((...((((((((+))))))))...)))))))) ?
Reply: 50.9

Query: Any idea what Tm was measured for CGACGTGCACAATGTGCTG+CAGCACATCACGCACGTCG ((((((((...((((((((+))))))))...)))))))) ?
Reply: 45.3

Query: Any idea what Tm was measured for CGACGTGCTGAATGTGCTG+CAGCACATGCGGCACGTCG ((((((((.(.((((((((+)))))))).).)))))))) ?
Reply: 55.3

* * *

protocol-text: melting temperature; melt of duplexes
recorded-conditions: sodium 0.0675 M; strand 1 µM
Give Tm for every item shown.

Query: Any idea what Tm was measured for CGACGTGCTAGATGTGCTG+CAGCACATTGCGCACGTCG ((((((((...((((((((+))))))))...)))))))) ?
Reply: 49.2 °C

Query: Any idea what Tm was measured for CGACGTGCTCTATGTGCTG+CAGCACATCAAGCACGTCG (((((((((..((((((((+))))))))..))))))))) ?
Reply: 51.1 °C

Query: Any idea what Tm was measured for CGACGTGCAGGATGTGCTG+CAGCACATTGAGCACGTCG ((((((((...((((((((+))))))))...)))))))) ?
Reply: 50.6 °C

Query: Any idea what Tm was measured for CGACGTGCTCGATGTGCTG+CAGCACATACTGCACGTCG ((((((((...((((((((+))))))))...)))))))) ?
Reply: 49 °C

* * *

protocol-text: melting temperature; melt of duplexes
recorded-conditions: sodium 0.0675 M; strand 1 µM
Threshold check on Tm: strictly below 50 °C is True; on or above 50 °C is False.

Query: Does the reported Tm of CGACGTGCCCCATGTGCTG+CAGCACATCAAGCACGTCG ((((((((...((((((((+))))))))...)))))))) stay below 50 °C?
Reply: True

Query: Does the reported Tm of CGACGTGCGAAATGTGCTG+CAGCACATACAGCACGTCG ((((((((...((((((((+))))))))...)))))))) stay below 50 °C?
Reply: False

Query: Does the reported Tm of CGACGTGCTCGATGTGCTG+CAGCACATCGAGCACGTCG (((((((((((((((((((+))))))))))))))))))) stay below 50 °C?
Reply: False

Query: Does the reported Tm of CGACGTGCATCATGTGCTG+CAGCACATACGGCACGTCG ((((((((...((((((((+))))))))...)))))))) stay below 50 °C?
Reply: True

Query: Does the reported Tm of CGACGTGCCCCATGTGCTG+CAGCACATTGGGCACGTCG ((((((((((.((((((((+)))))))).)))))))))) stay below 50 °C?
Reply: False

* * *

protocol-text: melting temperature; melt of duplexes
recorded-conditions: sodium 0.0675 M; strand 1 µM
test-readout: Tm (°C)
Report as a plain number; the unit °C is understood.

Query: Any idea what Tm was measured for CGACGTGCCGAATGTGCTG+CAGCACATACTGCACGTCG ((((((((.(.((((((((+)))))))).).)))))))) ?
Reply: 50.2

Query: Any idea what Tm was measured for CGACGTGCGACATGTGCTG+CAGCACATATGGCACGTCG ((((((((.(.((((((((+)))))))).).)))))))) ?
Reply: 50.2

Query: Any idea what Tm was measured for CGACGTGCTAAATGTGCTG+CAGCACATACTGCACGTCG ((((((((...((((((((+))))))))...)))))))) ?
Reply: 49.7

Query: Any idea what Tm was measured for CGACGTGCGTTATGTGCTG+CAGCACATCCAGCACGTCG ((((((((...((((((((+))))))))...)))))))) ?
Reply: 49.6

Query: Any idea what Tm was measured for CGACGTGCTGTATGTGCTG+CAGCACATCCCGCACGTCG ((((((((.(.((((((((+)))))))).).)))))))) ?
Reply: 49.4

Query: Any idea what Tm was measured for CGACGTGCGACATGTGCTG+CAGCACATCAGGCACGTCG ((((((((...((((((((+))))))))...)))))))) ?
Reply: 49

Query: Any idea what Tm was measured for CGACGTGCCTAATGTGCTG+CAGCACATTGCGCACGTCG ((((((((..(((((((((+)))))))))..)))))))) ?
Reply: 51

Query: Any idea what Tm was measured for CGACGTGCGAGATGTGCTG+CAGCACATACGGCACGTCG ((((((((...((((((((+))))))))...)))))))) ?
Reply: 50.1

* * *

Give Tm for every item shown.
protocol-text: melting temperature; melt of duplexes
recorded-conditions: sodium 0.0675 M; strand 1 µM
Report as a plain number; the unit °C is understood.

Query: Any idea what Tm was measured for CGACGTGCCACATGTGCTG+CAGCACATGACGCACGTCG ((((((((..(((((((((+)))))))))..)))))))) ?
Reply: 49.5

Query: Any idea what Tm was measured for CGACGTGCGGCATGTGCTG+CAGCACATCATGCACGTCG ((((((((...((((((((+))))))))...)))))))) ?
Reply: 51.2

Query: Any idea what Tm was measured for CGACGTGCCAAATGTGCTG+CAGCACATTCCGCACGTCG ((((((((..(((((((((+)))))))))..)))))))) ?
Reply: 50.1

Query: Any idea what Tm was measured for CGACGTGCCAAATGTGCTG+CAGCACATCAAGCACGTCG ((((((((...((((((((+))))))))...)))))))) ?
Reply: 49.3

Query: Any idea what Tm was measured for CGACGTGCATAATGTGCTG+CAGCACATGCCGCACGTCG ((((((((...((((((((+))))))))...)))))))) ?
Reply: 50.9

Query: Any idea what Tm was measured for CGACGTGCTGGATGTGCTG+CAGCACATAGCGCACGTCG ((((((((...((((((((+))))))))...)))))))) ?
Reply: 49.3

Query: Any idea what Tm was measured for CGACGTGCCAAATGTGCTG+CAGCACATCTTGCACGTCG ((((((((.(.((((((((+)))))))).).)))))))) ?
Reply: 48.7

Query: Any idea what Tm was measured for CGACGTGCTCCATGTGCTG+CAGCACATAAGGCACGTCG ((((((((...((((((((+))))))))...)))))))) ?
Reply: 49

Query: Any idea what Tm was measured for CGACGTGCAAGATGTGCTG+CAGCACATGCTGCACGTCG (((((((((..((((((((+))))))))..))))))))) ?
Reply: 51.1

Query: Any idea what Tm was measured for CGACGTGCTGTATGTGCTG+CAGCACATAGCGCACGTCG ((((((((..(((((((((+)))))))))..)))))))) ?
Reply: 49.9

* * *

protocol-text: melting temperature; melt of duplexes
recorded-conditions: sodium 0.0675 M; strand 1 µM
test-readout: Tm (°C)
Report as a plain number; the unit °C is understood.

Query: Any idea what Tm was measured for CGACGTGCACGATGTGCTG+CAGCACATCAAGCACGTCG ((((((((..(((((((((+)))))))))..)))))))) ?
Reply: 51.2

Query: Any idea what Tm was measured for CGACGTGCCGTATGTGCTG+CAGCACATGTAGCACGTCG ((((((((...((((((((+))))))))...)))))))) ?
Reply: 49.1

Query: Any idea what Tm was measured for CGACGTGCCCAATGTGCTG+CAGCACATCGAGCACGTCG ((((((((.(.((((((((+)))))))).).)))))))) ?
Reply: 50.3

Query: Any idea what Tm was measured for CGACGTGCCTGATGTGCTG+CAGCACATGAAGCACGTCG ((((((((.(.((((((((+)))))))).).)))))))) ?
Reply: 49.8

Query: Any idea what Tm was measured for CGACGTGCAGGATGTGCTG+CAGCACATAAAGCACGTCG ((((((((...((((((((+))))))))...)))))))) ?
Reply: 50.6

Query: Any idea what Tm was measured for CGACGTGCTCGATGTGCTG+CAGCACATGGTGCACGTCG ((((((((.(.((((((((+)))))))).).)))))))) ?
Reply: 49.7

Query: Any idea what Tm was measured for CGACGTGCCGGATGTGCTG+CAGCACATTTCGCACGTCG ((((((((...((((((((+))))))))...)))))))) ?
Reply: 49.1

Query: Any idea what Tm was measured for CGACGTGCAAGATGTGCTG+CAGCACATTTAGCACGTCG ((((((((.(.((((((((+)))))))).).)))))))) ?
Reply: 51.1

Query: Any idea what Tm was measured for CGACGTGCCTAATGTGCTG+CAGCACATAAAGCACGTCG ((((((((.(.((((((((+)))))))).).)))))))) ?
Reply: 50.3

Query: Any idea what Tm was measured for CGACGTGCCTCATGTGCTG+CAGCACATATAGCACGTCG ((((((((...((((((((+))))))))...)))))))) ?
Reply: 48.8

Query: Any idea what Tm was measured for CGACGTGCCGTATGTGCTG+CAGCACATGGAGCACGTCG ((((((((...((((((((+))))))))...)))))))) ?
Reply: 50.8
